Exercise: for every item that follows, state its recorded pKd.
Target: DLG2_3, Q15700
Experiment: holdup assay
Set-up: key: below the threshold = too weak to quantify, mostly under pKd 3.1 to 4
Details: plain residues with an end cap or a label only (N-terminal biotin on a linker: ahx)
Answers are plain numbers.

binder="QPRTWLQSPV [RTKN, Q9BST9]" recorded_endpoint=pKd test_value=3.62
binder="APSRKLNTEI [TIAM1, Q13009]" recorded_endpoint=pKd test_value=3.66
binder="HTHSYIETHV [CNKSR2, Q8WXI2]" recorded_endpoint=pKd test_value=4.54

Now let's try a different one.
// query pKd value for entry QDEKVKESYV [ABCA1, O95477]
4.63
